Data origin: patent US20190359687A1

tested target: T1, human glycophorin A on human red blood cells or red blood cell membranes (human, UniProt P02724 20-150)
T1 construct: whole, on cells; also called hRBC; human RBC membranes
T1 sequence (looked up): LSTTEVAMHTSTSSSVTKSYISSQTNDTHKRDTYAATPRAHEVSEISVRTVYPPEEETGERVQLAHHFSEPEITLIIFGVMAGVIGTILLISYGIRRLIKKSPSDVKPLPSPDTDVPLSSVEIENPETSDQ
experiment description: SPR (Biacore), Fab over human RBC membranes, 1:1 fit;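 also: human RBC membrane preparations captured on an L1 sensor surface, with antibody passed over them as analyte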
reported property: kon (M⁻¹ s⁻¹)
Reply with just the number (in M⁻¹ s⁻¹).

**Q:** Any idea what kon was measured for TPP-5907, humanized and germlined 6C12 Fab; VL: (S24R, A26S, S49A, P54Q, F95Y); VH: (I48M, S54G, D56G, D66G, L70M, T72R) (Fab, V domains shown) VH: EVQLVQSGAEVKKPGASVKVSCKASGYTFTTYTIHWVRQAPGQGLEWMGYINPGSGYTRYNPKFKGRVTMTRDKSTSTAYMELRSLRSDDTAVYYCQTGTRDYWGQGTTVTVSS VL: DIQLTQSPSFLSASVGDRVTITCRASSSVSYIYWFQQKPGKAPKLLIYATSTLQSGVPSRFSGSGSGTEYTLTISSLQPEDFATYYCHQRNSFPYTFGQGTKLEIKR ?
**A:** 4.9e+06

**Q:** Repeat for the following binder: TPP-5675, Hu6C12-24 Fab variant VH: (I48M, L70M, T72R) (Fab, V domains shown, Built on the parental Fab TPP-4935) VH: EVQLVQSGAEVKKPGASVKVSCKASGYTFTTYTIHWVRQAPGQGLEWMGYINPSSDYTRYNPKFKDRVTMTRDKSTSTAYMELRSLRSDDTAVYYCQTGTRDYWGQGTTVTVSS VL: DIQLTQSPSFLSASVGDRVTITCSAASSVSYIYWFQQKPGKAPKLLIYSTSTLPSGVPSRFSGSGSGTEYTLTISSLQPEDFATYYCHQRNSFPFTFGQGTKLEIKR
**A:** 420000

**Q:** Repeat for the following binder: TPP-5839, Hu6C12-24 Fab variant VL: (S24R, A26S, S49A, P54Q, F95Y); VH: (I48M, D66G, L70M, T72R) (Fab, V domains shown, Built on the parental Fab TPP-4935) VH: EVQLVQSGAEVKKPGASVKVSCKASGYTFTTYTIHWVRQAPGQGLEWMGYINPSSDYTRYNPKFKGRVTMTRDKSTSTAYMELRSLRSDDTAVYYCQTGTRDYWGQGTTVTVSS VL: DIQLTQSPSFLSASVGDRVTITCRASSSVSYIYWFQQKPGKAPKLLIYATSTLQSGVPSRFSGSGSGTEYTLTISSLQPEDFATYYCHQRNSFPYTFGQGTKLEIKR
**A:** 2.1e+06

**Q:** Repeat for the following binder: TPP-5838, Hu6C12-24 Fab variant VL: (S24R, A26S, S49A, P54Q, F95Y); VH: (I48M, D66G, L70M) (Fab, V domains shown, Built on the parental Fab TPP-4935) VH: EVQLVQSGAEVKKPGASVKVSCKASGYTFTTYTIHWVRQAPGQGLEWMGYINPSSDYTRYNPKFKGRVTMTTDKSTSTAYMELRSLRSDDTAVYYCQTGTRDYWGQGTTVTVSS VL: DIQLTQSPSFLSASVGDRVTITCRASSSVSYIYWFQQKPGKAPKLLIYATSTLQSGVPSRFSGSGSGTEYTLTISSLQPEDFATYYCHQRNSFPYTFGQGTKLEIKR
**A:** 1.3e+06

**Q:** Repeat for the following binder: TPP-5841, Hu6C12-24 Fab variant VL: (S24R, A26S, S49A, P54Q, F95Y); VH: (D66G, L70M) (Fab, V domains shown, Built on the parental Fab TPP-4935) VH: EVQLVQSGAEVKKPGASVKVSCKASGYTFTTYTIHWVRQAPGQGLEWIGYINPSSDYTRYNPKFKGRVTMTTDKSTSTAYMELRSLRSDDTAVYYCQTGTRDYWGQGTTVTVSS VL: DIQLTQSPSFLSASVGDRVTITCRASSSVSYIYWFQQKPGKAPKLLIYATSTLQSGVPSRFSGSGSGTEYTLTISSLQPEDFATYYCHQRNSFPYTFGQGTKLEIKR
**A:** 1.3e+06
